# assay-protocol: inhibition of 3D7 malaria parasite growth – strain 3D7 (AID 2306);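 further: 0% = DMSO wells and 100% = chloroquine plus artemisinin control wells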
# measurement-conditions: P. falciparum 3D7 erythrocytic growth, LDH absorbance, 72 h; at 2 µM; hits give high values
Activity calls are given as the source filed them. How the calls were made is not given here.
recorded-metric: growth inhibition

Can you share its growth inhibition? I mean this compound: COc1cc2nc(N3CCN(C(=O)c4ccc(N(C(=O)OC(C)(C)C)C(=O)OC(C)(C)C)cc4)CC3)nc(N)c2cc1OC
96% (active)

Can you share its growth inhibition? I mean this compound: COc1ccc(Nc2nccc(NCCNC(=O)Nc3ccccc3F)n2)cc1
85% (active)

Can you share its growth inhibition? I mean this compound: O=C(Cn1c(CCc2cccc(F)c2F)nc(=O)c2ccccc21)N(CCN1CCCCC1)Cc1ccc(-c2ccc(C(F)(F)F)cc2)cc1
101% (active)

Can you share its growth inhibition? I mean this compound: O=C(Nc1ccc(Cl)cc1)c1cc(Cl)cc2[nH]c(C(F)(F)F)nc12
100% (active)

Can you share its growth inhibition? I mean this compound: CN(c1ccc(F)cc1)S(=O)(=O)c1ccc(Cl)c(C(=O)Nc2cccc(C#N)c2)c1
95% (active)

Can you share its growth inhibition? I mean this compound: CCCCOP(=O)(OCCCC)C(=Cc1ccc(O)c2ccccc12)P(=O)(OCCCC)OCCCC
84% (active)

###

# assay-protocol: antimalarial activity against Dd2 strain (AID 2302);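 further: 0% = DMSO untreated growth and 100% = chloroquine plus artemisinin killed control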
# measurement-conditions: P. falciparum Dd2 in RBCs, LDH growth readout, 72 h; at 2 µM; hits give high values
recorded-metric: growth inhibition (%)
Please give a number only; it is taken to be in %.

Can you share its growth inhibition? I mean this molecule: CCCCCCCCOc1c(OCC)cc(Cc2cnc(N)nc2N)cc1OCC
-1

Can you share its growth inhibition? I mean this molecule: Cc1cc2c(NC(=O)NC3CCN(CCc4cccc(Cl)c4)CC3)cccc2cn1
27

Can you share its growth inhibition? I mean this molecule: CN(CCCNC(=S)NC12CC3CC(CC(C3)C1)C2)CCCNc1ccnc2cc(Cl)ccc12
98

Can you share its growth inhibition? I mean this molecule: CCCCCCNC(=O)C1Cc2c([nH]c3ccc(Br)cc23)C2(CCN(Cc3ccccc3)CC2)N1 (configuration not stated)
75

Can you share its growth inhibition? I mean this molecule: Cc1ccc(NC(=O)c2nc(N3CCN(c4ccncc4)CC3)ccc2Cl)cc1F
57

Can you share its growth inhibition? I mean this molecule: C=C[C@]1(C)C[C@@H](OC(=O)c2n[nH]c3ccccc3c2=O)[C@]2(C)[C@H](C)CC[C@]3(CCC(=O)[C@H]32)[C@@H](C)[C@@H]1O
84

Can you share its growth inhibition? I mean this molecule: CN(C)c1cccc2c1nc(-c1ccco1)n2CC1CCCN1 (configuration not stated)
46

###

# assay-protocol: inhibition of 3D7 malaria parasite growth – strain 3D7 (AID 2306);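 further: 0% = DMSO wells and 100% = chloroquine plus artemisinin control wells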
# measurement-conditions: P. falciparum 3D7 erythrocytic growth, LDH absorbance, 72 h; at 2 µM; hits give high values
The source made the active and inactive calls. No rule for the calls is given here.
Task for the reader: assign each of the following compounds its reported growth inhibition.

Can you share its growth inhibition? I mean this compound: N=c1n(Cc2ccc(Cl)cc2)c2ccccc2n1CC(O)c1ccc(Cl)c(Cl)c1 (stereo not drawn)
98% (active)

Can you share its growth inhibition? I mean this compound: O=C(NCCCCCN1CCC(c2c[nH]c3ccccc23)CC1)Nc1cccc(C(F)(F)F)c1
97% (active)

Can you share its growth inhibition? I mean this compound: O=C(/C=C/c1ccc(Cl)c(Cl)c1)NCCCCCN1CCC(NC(=O)Nc2ccc(C(F)(F)F)cc2)C1 (stereo not drawn)
100% (active)

Can you share its growth inhibition? I mean this compound: COc1cc(NC(=O)C(c2ccc(Cl)cc2)C(C)C)cc(OC)c1OC (stereo not drawn)
101% (active)

Can you share its growth inhibition? I mean this compound: Nc1nc(N)c2c(ccc3c2ccn3CCCF)n1
94% (active)

Can you share its growth inhibition? I mean this compound: CCCCOc1ccc(C(=O)C(CCC(CNC(C)(C)C)C(=O)c2ccc(OCCCC)cc2)CNC(C)(C)C)cc1 (stereo not drawn)
94% (active)

Can you share its growth inhibition? I mean this compound: Cc1cc(N[C@@H](CC(C)C)C(=O)NCc2cccs2)nc(NCCc2ccc(F)cc2)n1
100% (active)

Can you share its growth inhibition? I mean this compound: CCc1ccc(S(=O)(=O)Nc2ccc(CCN3CCC(N4CCCCC4)CC3)cc2)cc1
100% (active)

Can you share its growth inhibition? I mean this compound: CCc1ccc(C2CCN(CCCCNC(=O)c3ccc(-c4ccc(C(F)(F)F)cc4)cc3)CC2)c(OCCO)c1
101% (active)

Can you share its growth inhibition? I mean this compound: CC(=O)CC(=O)N1CCN(c2ccccc2)CC1
85% (active)

Can you share its growth inhibition? I mean this compound: O=C(Nc1ccc(Cl)cc1)c1ccc(CN2CCCN(Cc3cccc(O)c3)CC2)cc1
100% (active)

Can you share its growth inhibition? I mean this compound: CN(CCCNC(=S)NC12CC3CC(CC(C3)C1)C2)CCCNc1ccnc2cc(Cl)ccc12
100% (active)

Can you share its growth inhibition? I mean this compound: O=C(Nc1ccc(OC2CCN(Cc3ccc(F)cc3)CC2)c(Cl)c1)c1ccsc1
94% (active)

###

# study-system: L-lactate dehydrogenase (Plasmodium falciparum (isolate CDC / Honduras)) (UniProt Q27743)
# Sequence (Q27743 whole entry, looked up): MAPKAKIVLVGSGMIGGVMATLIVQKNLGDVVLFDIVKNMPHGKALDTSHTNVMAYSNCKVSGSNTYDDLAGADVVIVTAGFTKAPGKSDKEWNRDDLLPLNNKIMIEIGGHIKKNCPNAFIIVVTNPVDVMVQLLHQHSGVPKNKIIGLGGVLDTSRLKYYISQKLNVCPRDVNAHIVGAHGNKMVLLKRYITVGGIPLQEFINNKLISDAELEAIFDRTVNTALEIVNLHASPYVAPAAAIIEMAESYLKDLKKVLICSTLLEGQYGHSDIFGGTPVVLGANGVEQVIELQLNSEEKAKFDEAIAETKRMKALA
# assay-protocol: PfLDH activity inhibition – cell lysate, 3D7 strain, counter-screen for P. falciparum growth inhibition project (AID 2304);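 further: 0% = vehicle and 100% = reference inhibitor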
# measurement-conditions: P. falciparum 3D7 crude extract, LDH APAD/NBT absorbance; at 2 µM; hits give high values
Task for the reader: assign each of the following compounds its reported inhibition.
Please give a number only; it is taken to be in %.

Can you share its inhibition? I mean this compound: N=C(N)c1cccc(OCCCOc2cccc(NC(=O)Nc3ccc([N+](=O)[O-])cc3)c2)c1
3

Can you share its inhibition? I mean this compound: C=CCOc1cccc2c1CCN(CCN1CCC(NC(=O)c3ccc(-c4ccc(Cl)cc4)cc3)CC1)C2
-2

Can you share its inhibition? I mean this compound: COc1ccccc1C1CC(c2ccc(C)cc2)=NN1C(=O)c1ccccc1 (centres undefined)
-5

Can you share its inhibition? I mean this compound: COCCNCc1cccc(-c2ccc3c(Nc4ccc(F)cc4Cl)ccnc3c2)c1
3

Can you share its inhibition? I mean this compound: O=C1C(c2ccccc2)=C(Nc2ccc([N+](=O)[O-])cc2)c2ccccc21
-2

Can you share its inhibition? I mean this compound: OC(CNc1ccnc(Nc2ccc(Cl)cc2)n1)c1ccc(C(F)(F)F)cc1 (centres undefined)
-6

Can you share its inhibition? I mean this compound: O=C(Nc1ccc(S(=O)(=O)NCCCN2CCOCC2)cc1)c1cc(-c2ccccc2)n[nH]1
1

Can you share its inhibition? I mean this compound: Cc1cc(NCc2ccccc2)nc2cc(O)ccc12
6

Can you share its inhibition? I mean this compound: CC1CN(S(=O)(=O)c2ccc(NC(=O)c3cc(-c4ccccc4O)n[nH]3)cc2)CC(C)O1 (centres undefined)
1

Can you share its inhibition? I mean this compound: CC(O)C1CCCCN1C(=O)c1cccc(-c2ccc(-c3nc4ccccc4[nH]3)s2)c1 (centres undefined)
-1

Can you share its inhibition? I mean this compound: CCCCNCC(O)COc1ccccc1-c1ccc(N/N=C/c2cccc3ccccc23)nn1 (centres undefined)
-4

Can you share its inhibition? I mean this compound: CN1CCN(c2cc3c(cc2Cl)CCN3C(=O)Cc2ccc(NC(=O)Nc3cccc4ccccc34)cc2)CC1
-11

Can you share its inhibition? I mean this compound: O=C(/C=C/C=C/c1ccc(Cl)c(Cl)c1)NCCCCCN1CCCC2CCCCC21 (centres undefined)
-5

Can you share its inhibition? I mean this compound: CO/C(=C\C=C\c1cc2cc(Cl)c(Cl)cc2[nH]1)C(=O)NCCCN1CCN(c2cccc(OC)c2)CC1
0

###

# assay-protocol: antimalarial activity against Dd2 strain (AID 2302);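 further: 0% = DMSO untreated growth and 100% = chloroquine plus artemisinin killed control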
# measurement-conditions: P. falciparum Dd2 in RBCs, LDH growth readout, 72 h; at 2 µM; hits give high values
The source made the active and inactive calls.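 The calls were made as follows: active = growth inhibition above 50% at the single 2 µM test dose, taken to imply half-maximal potency below 2 µM; inactive = the rest.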
recorded-metric: growth inhibition

Can you share its growth inhibition? I mean this molecule: Cc1cc(NC(=O)c2cccs2)ccc1OC1CCN(Cc2ccccc2)C1 (centres undefined)
87% (active)

Can you share its growth inhibition? I mean this molecule: CC1(C)N=C(N)N=C(N)N1c1ccc(I)cc1
1% (inactive)

Can you share its growth inhibition? I mean this molecule: Cc1cnc(-c2ccc(NC(=O)c3coc4ccc(N5C[C@@H](C)N(C)[C@@H](C)C5)cc34)cc2)o1
39% (inactive)

Can you share its growth inhibition? I mean this molecule: Fc1ccc(NC(=S)NN=Cc2ccccn2)cc1
67% (active)

Can you share its growth inhibition? I mean this molecule: COc1ccc(C2CC(c3cccs3)=NN2C(=O)c2ccco2)cc1OC (centres undefined)
97% (active)

Can you share its growth inhibition? I mean this molecule: COc1ccc2nccc([C@@H](O)CN3CCC(NCc4cc5c(F)ccc(F)c5[nH]4)CC3)c2n1
76% (active)

Can you share its growth inhibition? I mean this molecule: CCCCc1cc(NCC)nc(Nc2cccc(OC)c2)n1
69% (active)

Can you share its growth inhibition? I mean this molecule: CCCN1CCC(c2c[nH]c3ccc(NC(=O)Nc4cccc(Cl)c4Cl)cc23)CC1
17% (inactive)

Can you share its growth inhibition? I mean this molecule: CCNC(=O)N[C@@H]1CN[C@@H](C#Cc2cc3c(Nc4ccc(OCc5cccc(F)c5)c(Cl)c4)ncnc3s2)C1
27% (inactive)

Can you share its growth inhibition? I mean this molecule: O=c1cc(NCCCNCc2cccc(SC(F)(F)F)c2)[nH]c2ccccc12
94% (active)

Can you share its growth inhibition? I mean this molecule: Cn1ccnc1CCC(=O)Nc1ccc(Cl)cc1C(=O)Nc1ccc(Cl)cc1
3% (inactive)

Can you share its growth inhibition? I mean this molecule: CC(C)(C)c1ccc(CNC(=O)/C=C/c2ccc(-c3nc4ccc(C(C)(C)C)cc4[nH]3)cc2)cc1
66% (active)

Can you share its growth inhibition? I mean this molecule: COc1ccc(-n2ccnc2SCC(=O)Nc2cccc(C(F)(F)F)c2)c(OC)c1
88% (active)

Can you share its growth inhibition? I mean this molecule: O=C(Nc1ccc(-c2oc(C(=O)NCCc3cccc(Cl)c3)cc2-c2ccncc2)cc1)Nc1cccc(Cl)c1
84% (active)
